Tgt: T1, EsCas13d, nuclease-dead (Eubacterium siraeum, UniProt B0MS50, R295A;H300A;R849A;H854A)
T1 sequence: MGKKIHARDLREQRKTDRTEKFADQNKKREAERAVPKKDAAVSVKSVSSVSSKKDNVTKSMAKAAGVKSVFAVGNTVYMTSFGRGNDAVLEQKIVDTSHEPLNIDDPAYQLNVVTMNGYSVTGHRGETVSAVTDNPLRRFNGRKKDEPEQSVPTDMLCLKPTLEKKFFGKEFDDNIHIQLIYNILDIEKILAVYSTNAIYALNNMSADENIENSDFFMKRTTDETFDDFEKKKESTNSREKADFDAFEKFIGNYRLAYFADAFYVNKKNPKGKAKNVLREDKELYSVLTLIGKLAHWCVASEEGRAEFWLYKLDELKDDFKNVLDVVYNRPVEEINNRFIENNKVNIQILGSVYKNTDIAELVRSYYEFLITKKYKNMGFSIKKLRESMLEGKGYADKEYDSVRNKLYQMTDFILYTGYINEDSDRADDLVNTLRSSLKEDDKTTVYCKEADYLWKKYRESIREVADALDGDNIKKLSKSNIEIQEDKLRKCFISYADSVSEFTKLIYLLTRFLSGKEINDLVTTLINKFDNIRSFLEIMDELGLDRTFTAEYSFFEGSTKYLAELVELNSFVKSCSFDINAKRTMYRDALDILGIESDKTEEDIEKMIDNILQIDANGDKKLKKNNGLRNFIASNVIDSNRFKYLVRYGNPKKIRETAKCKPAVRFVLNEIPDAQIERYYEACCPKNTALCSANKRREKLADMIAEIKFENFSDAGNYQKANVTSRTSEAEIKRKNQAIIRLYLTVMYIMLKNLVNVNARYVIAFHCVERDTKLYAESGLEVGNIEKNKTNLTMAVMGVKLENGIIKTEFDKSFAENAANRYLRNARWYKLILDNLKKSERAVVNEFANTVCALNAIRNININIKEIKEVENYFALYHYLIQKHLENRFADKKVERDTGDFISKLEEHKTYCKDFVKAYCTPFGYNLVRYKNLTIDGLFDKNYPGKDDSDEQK
Method notes: crRNA (strand 1, pre-loaded); Mg2+; 40 mM Tris-HCl pH 7.5, 150 mM NaCl, 6 mM MgCl2, 1 mM DTT, 0.1% Tween-20, 0.2 mg/ml BSA; 25 C; 10 min per concentration, then washed
Condition set: tags: His6-TwinStrep-SUMO cleaved; N-terminal SNAP kept (SNAP-Surface 488); label: 3' end held by stalled T7 RNA polymerase
Value kind: Kd (nM)
Your answer is read as nM, so omit the unit and give the number.

Example entries and their recorded answers appear below.
target 2 MT 5'PFS AUU 3'PFS AGG (mixed) RNA 1: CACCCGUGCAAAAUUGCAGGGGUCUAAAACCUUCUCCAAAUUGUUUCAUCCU RNA 2: GGGAAUGGAUCCACAUCUACGAAUUCAUUAGGAUGAAACAAUUUGGAGAAGAGGAGAUCGGAAGAGCACACGU : 13
target 1 insA 3' of 13,insA 3' of 8 (mixed) RNA 1: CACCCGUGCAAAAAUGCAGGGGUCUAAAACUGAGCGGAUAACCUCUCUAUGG RNA 2: GGGAAUGGAUCCACAUCUACGAAUUCGUACCAUAGAGAGAGUUAUACCGCUCACCGAGAUCGGAAGAGCACACGU : 4.8
target 1 MT 5'PFS GUG 3'PFS GAU (mixed) RNA 1: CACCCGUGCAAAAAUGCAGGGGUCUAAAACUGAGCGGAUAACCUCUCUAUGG RNA 2: GGGAAUGGAUCCACAUCUACGAAUUCGUGCCAUAGAGAGGUUAUCCGCUCAGAUAGAUCGGAAGAGCACACGU : 15.4

Here's the next entry for you.
Kd in this record for target 3 insA 3' of 22,insA 3' of 8 (mixed) RNA 1: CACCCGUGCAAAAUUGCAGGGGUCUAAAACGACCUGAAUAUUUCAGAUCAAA RNA 2: GGGAAUGGAUCCACAUCUACGAAUUCGUUUAUUGAUCUGAAAUAUAUCAGGUCUGCAGAUCGGAAGAGCACACGU : 98.5
